Reported kon values follow for various binders
ASSAYED_TARGET: T1, RSV F glycoprotein (NUF4) (respiratory syncytial virus)
T1 chain 1: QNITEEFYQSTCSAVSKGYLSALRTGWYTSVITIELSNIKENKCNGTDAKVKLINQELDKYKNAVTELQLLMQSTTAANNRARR
T1 chain 2: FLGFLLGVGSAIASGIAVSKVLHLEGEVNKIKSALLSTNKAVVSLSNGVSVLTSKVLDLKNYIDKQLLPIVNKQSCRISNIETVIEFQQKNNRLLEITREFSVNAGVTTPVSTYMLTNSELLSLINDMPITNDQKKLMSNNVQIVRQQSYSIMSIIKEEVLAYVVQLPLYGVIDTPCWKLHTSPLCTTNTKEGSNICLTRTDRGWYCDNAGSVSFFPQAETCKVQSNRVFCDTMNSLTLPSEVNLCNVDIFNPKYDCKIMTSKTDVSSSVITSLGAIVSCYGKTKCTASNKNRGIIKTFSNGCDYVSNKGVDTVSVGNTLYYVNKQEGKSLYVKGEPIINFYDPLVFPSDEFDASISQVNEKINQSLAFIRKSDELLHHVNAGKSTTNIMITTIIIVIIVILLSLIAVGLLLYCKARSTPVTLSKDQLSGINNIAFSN
ASSAY_NOTES: SPR (BIAcore), mAb vs NUF4 (2:1)

BINDER	kon
A1e9 IgG (antibody, V domains shown, also called Ale9) VH: QVTLRESGPALVKPTQTLTLTCTFSGFSLSTAGMSVGWIRQPPGKALEWLADIWWDGKKHYNPSLKDRLTISKDTSKNQVVLKVTNMDPADTATYYCARDMIFNWYFDVWGQGTTVTVSS VL: DIQMTQSPSTLSASVGDRVTITCSLSSRVGYMHWYQQKPGKAPKLLIYDTFKLSSGVPSRFSGSGSGTEFTLTISSLQPDDFATYYCFQGSGYPFTFGGGTKVEIKR	329000 M⁻¹ s⁻¹
A4B4 IgG (antibody, V domains shown) VH: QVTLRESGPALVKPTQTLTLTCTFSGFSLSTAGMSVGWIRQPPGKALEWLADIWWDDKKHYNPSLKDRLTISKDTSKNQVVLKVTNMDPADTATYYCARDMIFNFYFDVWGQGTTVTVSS VL: DIQMTQSPSTLSASVGDRVTITCSASSRVGYMHWYQQKPGKAPKLLIYDTFFLDSGVPSRFSGSGSGTEFTLTISSLQPDDFATYYCFQGSGYPFTFGGGTKVEIKR	203000 M⁻¹ s⁻¹
P12f4 IgG (antibody, V domains shown) VH: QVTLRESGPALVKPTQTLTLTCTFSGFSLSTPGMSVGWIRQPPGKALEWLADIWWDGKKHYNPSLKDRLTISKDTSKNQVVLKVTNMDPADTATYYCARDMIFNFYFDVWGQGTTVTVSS VL: DIQMTQSPSTLSASVGDRVTITCSLSSRVGYMHWYQQKPGKAPKLLIYDTRGLPSGVPSRFSGSGSGTEFTLTISSLQPDDFATYYCFQGSGYPFTFGGGTKVEIKR	273000 M⁻¹ s⁻¹
A8c7 IgG (antibody, V domains shown) VH: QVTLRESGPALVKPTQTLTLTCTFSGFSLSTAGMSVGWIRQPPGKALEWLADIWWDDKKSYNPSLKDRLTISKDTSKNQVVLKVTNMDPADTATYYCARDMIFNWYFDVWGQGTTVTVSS VL: DIQMTQSPSTLSASVGDRVTITCSPSSRVGYMHWYQQKPGKAPKLLIYDTRYQSSGVPSRFSGSGSGTEFTLTISSLQPDDFATYYCFQGSGYPFTFGGGTKVEIKR	430000 M⁻¹ s⁻¹
A12a6 IgG (antibody, V domains shown) VH: QVTLRESGPALVKPTQTLTLTCTFSGFSLSTAGMSVGWIRQPPGKALEWLADIWWDGKKDYNPSLKDRLTISKDTSKNQVVLKVTNMDPADTATYYCARDMIFNFYFDVWGQGTTVTVSS VL: DIQMTQSPSTLSASVGDRVTITCSASSRVGYMHWYQQKPGKAPKLLIYDTFKLSSGVPSRFSGSGSGTEFTLTISSLQPDDFATYYCFQGSGYPFTFGGGTKVEIKR	218000 M⁻¹ s⁻¹
